- System: MDCK
- MEASUREMENT NOTES: Apparent permeability across apical to basolateral side in MDCK cells expressing MDR1 (unknown origin)
- Set-up: unit not given here
- CONDITIONS: dog
# Papp A-B per record follows
READOUT: Papp A-B

> print(dat)
                                 smiles.str  experimental.value
1    Cc1cc2c3ccccc3cc(CCc3nc4ccccc4n3C)n2n1                 1.1
2  Cc1cc2c3ccncc3cc(CCc3nc(-c4ccccc4)cn3C)n2n1                11.7
3  COCc1cc2c3cccnc3cc(CCc3nc(-c4ccccc4)cn3C)n2n1                17.8
4  Cn1cc(-c2ccccc2)nc1CCc1cc2ncccc2c2cc(C(F)(F)F)nn12                 3.1
5  Cc1cc2c3ccccc3cc(CCc3nc(-c4ccccc4)cn3C)n2n1                 3.1

----------
# inhibition annotations
- TARGET: High affinity cGMP-specific 3',5'-cyclic phosphodiesterase 9A (Homo sapiens)
- MEASUREMENT NOTES: Inhibition of PDE9A (unknown origin) at 10 uM
READOUT: inhibition (%)

> print(dat)
                                  smiles.str  readout.units  experimental.value
 1    Cc1cc2c3cccnc3cc(CCc3nc4ccccc4n3C)n2n1              %                  21
 2  Cc1cc2c3ccncc3cc(CCc3nc(-c4ccccc4)cn3C)n2n1              %                  12
 3    Cc1cc2c3cnccc3cc(CCc3nc4ccccc4n3C)n2n1              %                  15
 4    Cc1cc2c3ccccc3cc(CCc3nc4ccccc4n3C)n2n1              %                  10
 5  Cc1cc2c3cccnc3cc(CCc3nc(-c4ccccc4)cn3C)n2n1              %                   5
 6  COCc1cc2c3cccnc3cc(CCc3nc(-c4ccccc4)cn3C)n2n1              %                  15
 7  Cc1cc2c3cnccc3cc(CCc3nc(-c4ccccc4)cn3C)n2n1              %                  53
 8  CCOC(=O)c1cc2c3cccnc3cc(CCc3nc(-c4ccccc4)cn3C)n2n1              %                  20
 9  Cn1cc(-c2ccccc2)nc1CCc1cc2ncccc2c2cc(C(F)(F)F)nn12              %                   8
10  CCOC(=O)c1cc2c3cccnc3cc(CCc3nc4ccccc4n3C)n2n1              %                  -2

----------
- TARGET: cAMP and cAMP-inhibited cGMP 3',5'-cyclic phosphodiesterase 10A (Homo sapiens)
- Sequence (Q9Y233 whole entry): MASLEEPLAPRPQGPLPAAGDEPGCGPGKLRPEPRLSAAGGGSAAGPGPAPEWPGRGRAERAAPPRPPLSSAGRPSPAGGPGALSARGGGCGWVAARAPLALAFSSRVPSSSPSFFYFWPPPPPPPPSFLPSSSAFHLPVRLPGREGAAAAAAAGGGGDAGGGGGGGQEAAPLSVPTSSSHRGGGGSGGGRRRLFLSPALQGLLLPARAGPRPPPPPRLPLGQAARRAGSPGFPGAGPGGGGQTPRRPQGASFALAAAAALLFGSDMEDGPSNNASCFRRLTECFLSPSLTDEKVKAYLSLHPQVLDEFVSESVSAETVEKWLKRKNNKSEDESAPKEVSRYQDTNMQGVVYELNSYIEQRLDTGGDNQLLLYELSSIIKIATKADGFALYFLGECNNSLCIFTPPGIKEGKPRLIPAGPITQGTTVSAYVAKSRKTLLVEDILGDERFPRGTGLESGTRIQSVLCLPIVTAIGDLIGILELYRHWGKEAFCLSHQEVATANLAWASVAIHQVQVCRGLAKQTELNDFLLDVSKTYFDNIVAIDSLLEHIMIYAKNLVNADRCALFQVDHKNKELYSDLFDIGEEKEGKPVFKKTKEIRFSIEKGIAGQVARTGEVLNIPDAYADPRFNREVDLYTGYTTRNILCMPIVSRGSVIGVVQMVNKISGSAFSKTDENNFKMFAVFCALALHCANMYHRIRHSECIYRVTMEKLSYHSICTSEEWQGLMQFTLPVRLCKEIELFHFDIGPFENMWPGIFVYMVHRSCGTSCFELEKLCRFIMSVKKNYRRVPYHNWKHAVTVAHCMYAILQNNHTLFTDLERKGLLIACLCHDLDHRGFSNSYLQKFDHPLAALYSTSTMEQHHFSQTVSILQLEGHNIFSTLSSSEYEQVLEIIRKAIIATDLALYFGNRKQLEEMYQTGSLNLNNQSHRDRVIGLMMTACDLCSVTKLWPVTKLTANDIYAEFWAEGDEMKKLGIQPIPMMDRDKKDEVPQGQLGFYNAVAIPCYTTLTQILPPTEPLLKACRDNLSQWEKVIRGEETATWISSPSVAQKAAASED
- MEASUREMENT NOTES: Inhibition of PDE10A (unknown origin) at 2 uM
READOUT: inhibition (%)

> print(dat)
                                 smiles.str     readout  readout.units  experimental.value
1    Cc1cc2c3cnccc3cc(CCc3nc4ccccc4n3C)n2n1  inhibition              %                  79
2  Cc1cc2c3cccnc3cc(CCc3nc(-c4ccccc4)cn3C)n2n1  inhibition              %                 102
3  Cc1cc2c3cnccc3cc(CCc3nc(-c4ccccc4)cn3C)n2n1  inhibition              %                 100
4  CCOC(=O)c1cc2c3cccnc3cc(CCc3nc(-c4ccccc4)cn3C)n2n1  inhibition              %                  88
5  CCOC(=O)c1cc2c3cccnc3cc(CCc3nc4ccccc4n3C)n2n1  inhibition              %                  73
6    Cc1cc2c3cccnc3cc(CCc3nc4ccccc4n3C)n2n1  inhibition              %                  93
